target: T1, native mouse MET on living cells (mouse, UniProt P16056 25-1379); test: flow cytometry, MLP29 cells
T1 construct: whole, on cells; also called Mouse cells (MLP29); mouse epithelial cells expressing MET
experimental-readout: pEC50
# pEC50 = -log10(concentration in molar units)

Worked cases, pEC50 given:
- binder: "72F8 chimeric llama-human IgG1 mAb (antibody, V domains shown, llama VH on human IgG1 CH1-CH2-CH3, llama VL on human lambda CL) VH: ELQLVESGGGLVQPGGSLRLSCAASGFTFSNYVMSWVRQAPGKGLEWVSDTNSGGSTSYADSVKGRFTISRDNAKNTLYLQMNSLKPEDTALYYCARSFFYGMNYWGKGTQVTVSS VL: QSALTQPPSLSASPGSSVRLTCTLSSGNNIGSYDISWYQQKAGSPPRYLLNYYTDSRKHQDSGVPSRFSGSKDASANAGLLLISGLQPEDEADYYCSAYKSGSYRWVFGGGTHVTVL"
  numeric-readout: 9.44
- binder: "76G7 chimeric llama-human IgG1 mAb (antibody, V domains shown, llama VH on human IgG1 CH1-CH2-CH3, llama VL on human lambda CL) VH: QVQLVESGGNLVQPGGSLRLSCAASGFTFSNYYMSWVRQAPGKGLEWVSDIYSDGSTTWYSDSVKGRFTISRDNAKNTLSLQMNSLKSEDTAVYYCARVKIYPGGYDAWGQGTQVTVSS VL: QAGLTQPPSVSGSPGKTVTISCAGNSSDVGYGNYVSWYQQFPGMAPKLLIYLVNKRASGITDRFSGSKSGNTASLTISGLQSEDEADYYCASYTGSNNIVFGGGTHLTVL"
  numeric-readout: 8.63
- binder: "71G3 chimeric llama-human IgG1 mAb (antibody, V domains shown, llama VH on human IgG1 CH1-CH2-CH3, llama VL on human lambda CL) VH: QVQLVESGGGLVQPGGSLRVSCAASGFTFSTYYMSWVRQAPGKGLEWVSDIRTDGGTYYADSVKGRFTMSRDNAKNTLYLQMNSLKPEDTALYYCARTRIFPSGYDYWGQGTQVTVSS VL: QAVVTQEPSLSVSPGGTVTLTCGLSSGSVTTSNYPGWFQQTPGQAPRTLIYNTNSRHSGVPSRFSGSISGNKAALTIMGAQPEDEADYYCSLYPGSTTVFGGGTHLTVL"
  numeric-readout: 9.67

Could you now look at the following binder, please?
Problem: Name the reported pEC50 value associated with the binder 71D4 chimeric llama-human IgG1 mAb (antibody, V domains shown, llama VH on human IgG1 CH1-CH2-CH3, llama VL on human lambda CL) VH: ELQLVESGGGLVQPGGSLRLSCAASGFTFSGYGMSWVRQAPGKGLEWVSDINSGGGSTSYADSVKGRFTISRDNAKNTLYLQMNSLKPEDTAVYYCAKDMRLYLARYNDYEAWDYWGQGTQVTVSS VL: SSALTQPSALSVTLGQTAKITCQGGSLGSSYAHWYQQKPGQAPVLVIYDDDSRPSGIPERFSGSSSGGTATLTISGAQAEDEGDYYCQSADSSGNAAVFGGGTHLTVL
Result: 9.30
